system: B16F10 cells; assay: Cell viability evaluation by CCK-8 assay; details: Mus musculus, B16-F10, 24 h, read-out: IC50 of cell viability
readout_type: pIC50
Formally, pIC50 is defined as -log10 of the concentration c, with c in mol/L.

Write down pIC50 measured for item CCCCCCCCC=CCCCCCCCC(=O)NCCCC(=O)NC(C(=O)N1CC(O)CC1C(=O)NCc1ccc(-c2scnc2C)cc1)C(C)(C)C (stereo not shown)
5.51
